half-life by entry:
assay: Pharmacokinetic (PK) parameters in mice, IV bolus and PO; assay type: in vivo; conditions: plasma; Mouse (BalbC), IV bolus 1 mg/kg
observed property: half-life (h)

>>> df
                                   molecule  uom  value_observed
0  CN1C[C@H]2C[C@@]2(C#Cc2cc3ncnc(Nc4cccc(Cl)c4F)c3cc2NC(=O)/C=C/CN2CCOCC2)C1    h             1.6
1  C=CC(=O)Nc1cc2c(Nc3cccc(Cl)c3F)ncnc2cc1C#C[C@@]1(C)CCN(C)C1    h            1.15

* * *

experiment: Plasma and brain concentration, unbound partition coefficient (Kpuu), mouse; assay type: in vivo; details: brain, PO 15 mg/kg
observed property: Kp uu

In [3]: df
Out[3]:
                                   compound  value_observed
0  CN1C[C@H]2C[C@@]2(C#Cc2cc3ncnc(Nc4cccc(Cl)c4F)c3cc2NC(=O)/C=C/CN2CCOCC2)C1 [Compound No. 2B]            0.19

* * *

biological target: EGFR-WT (H292) (Homo sapiens, UniProt P00533); experiment: Anti-proliferative IC50, wild-type EGFR (H292)
Sequence (P00533 25-1210): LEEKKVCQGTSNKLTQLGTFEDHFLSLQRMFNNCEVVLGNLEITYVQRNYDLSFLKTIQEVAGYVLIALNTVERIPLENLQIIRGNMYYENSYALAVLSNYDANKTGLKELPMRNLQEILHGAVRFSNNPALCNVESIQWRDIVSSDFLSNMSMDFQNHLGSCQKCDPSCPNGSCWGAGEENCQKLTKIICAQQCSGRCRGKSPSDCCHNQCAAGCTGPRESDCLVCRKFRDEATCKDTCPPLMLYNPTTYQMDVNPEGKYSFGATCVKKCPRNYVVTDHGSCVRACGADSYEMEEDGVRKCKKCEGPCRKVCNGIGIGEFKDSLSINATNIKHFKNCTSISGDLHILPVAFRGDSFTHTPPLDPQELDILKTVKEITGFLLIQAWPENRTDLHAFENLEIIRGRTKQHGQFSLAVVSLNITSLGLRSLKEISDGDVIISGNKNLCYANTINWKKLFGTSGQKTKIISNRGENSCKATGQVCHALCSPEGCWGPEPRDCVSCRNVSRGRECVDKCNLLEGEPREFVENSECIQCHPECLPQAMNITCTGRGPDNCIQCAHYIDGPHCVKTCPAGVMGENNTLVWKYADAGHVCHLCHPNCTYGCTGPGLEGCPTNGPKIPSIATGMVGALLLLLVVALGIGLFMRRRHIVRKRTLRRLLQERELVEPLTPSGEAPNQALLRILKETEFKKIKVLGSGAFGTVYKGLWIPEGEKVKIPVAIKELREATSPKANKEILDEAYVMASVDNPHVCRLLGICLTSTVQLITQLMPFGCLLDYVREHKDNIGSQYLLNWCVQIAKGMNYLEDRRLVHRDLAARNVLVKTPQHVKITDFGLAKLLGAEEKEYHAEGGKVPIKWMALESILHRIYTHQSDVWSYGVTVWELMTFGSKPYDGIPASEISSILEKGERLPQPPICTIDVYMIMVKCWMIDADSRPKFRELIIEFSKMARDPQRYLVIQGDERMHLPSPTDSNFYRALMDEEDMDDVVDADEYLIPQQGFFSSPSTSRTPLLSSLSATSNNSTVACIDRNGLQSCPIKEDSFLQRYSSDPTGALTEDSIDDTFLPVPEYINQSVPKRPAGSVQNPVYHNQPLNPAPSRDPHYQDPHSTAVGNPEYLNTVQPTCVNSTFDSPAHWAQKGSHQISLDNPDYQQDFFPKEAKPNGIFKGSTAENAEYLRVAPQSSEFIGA
observed property: IC50 (nM)

                                   molecule  value_observed
0  CN1C[C@H]2C[C@@]2(C#Cc2cc3ncnc(Nc4cccc(Cl)c4F)c3cc2NC(=O)/C=C/CN2CCOCC2)C1             119

* * *

assay: CNS PK, Kpuu in brain and CSF, rat; assay type: in vivo; conditions: cerebrospinal fluid (CSF), PO 30 mg/kg
observed property: Kp uu

>>> print(df.to_string())
                                   molecule  value_observed
0  CN1C[C@H]2C[C@@]2(C#Cc2cc3ncnc(Nc4cccc(Cl)c4F)c3cc2NC(=O)/C=C/CN2CCOCC2)C1 [Compound No. 2B]             0.9

* * *

assay: Pharmacokinetic (PK) parameters in mice, IV bolus and PO; format: in vivo; details: plasma; Mouse (BalbC), IV bolus 1 mg/kg
Documented clearance across a set of compounds
observed property: clearance

In [3]: df
Out[3]:
                                   compound  value_observed
0  C=CC(=O)Nc1cc2c(Nc3cccc(Cl)c3F)ncnc2cc1C#C[C@@]1(C)CCN(C)C1 [Compound No. 1A]    14 mL/min/kg
1  CN1C[C@H]2C[C@@]2(C#Cc2cc3ncnc(Nc4cccc(Cl)c4F)c3cc2NC(=O)/C=C/CN2CCOCC2)C1 [Compound No. 2B]    39 mL/min/kg

* * *

assay: CNS PK, Kpuu in brain and CSF, rat; format: in vivo; settings: brain, PO 30 mg/kg
observed property: Kp uu

In [3]: df
Out[3]:
                                   molecule  value_observed
0  CN1C[C@H]2C[C@@]2(C#Cc2cc3ncnc(Nc4cccc(Cl)c4F)c3cc2NC(=O)/C=C/CN2CCOCC2)C1            0.81

* * *

Experiment: Pharmacokinetic (PK) parameters in mice, IV bolus and PO
Format: in vivo
Settings: plasma; Mouse (BalbC), IV bolus 1 mg/kg
Experimental: To assess the ability for Compound No. 1A to penetrate the brain, mean plasma and brain concentration was determined for Compound No. 1A when dosed at 15 mg/kg. The unbound partition coefficient (Kpuu) was determined to be 0.19. See, e.g., FIG. 2. […] Pharmacokinetic (PK) parameters were measured for mice after being administered Compound No. 1A orally (P0) at 15 mg/kg and when administered via IV bolus at 1 mg/kg as shown in Table A below. […]
Collected C0 values appear next to each entry.
observed property: C0 (µg/mL)

>>> print(df.to_string())
                                   molecule  observed_property    uom  value_observed
0  C=CC(=O)Nc1cc2c(Nc3cccc(Cl)c3F)ncnc2cc1C#C[C@@]1(C)CCN(C)C1                 C0  µg/mL            4.24
1  CN1C[C@H]2C[C@@]2(C#Cc2cc3ncnc(Nc4cccc(Cl)c4F)c3cc2NC(=O)/C=C/CN2CCOCC2)C1                 C0  µg/mL           0.624

* * *

biological target: EGFR Ex19del/C797S (Ba/F3) (Homo sapiens, UniProt P00533, C797S/DEL746-750); assay: Cell line IC50, EGFR Ex19del/C797S (Ba/F3)
Sequence (P00533 with tags, fused parts or gaps DEL746-750/C797S): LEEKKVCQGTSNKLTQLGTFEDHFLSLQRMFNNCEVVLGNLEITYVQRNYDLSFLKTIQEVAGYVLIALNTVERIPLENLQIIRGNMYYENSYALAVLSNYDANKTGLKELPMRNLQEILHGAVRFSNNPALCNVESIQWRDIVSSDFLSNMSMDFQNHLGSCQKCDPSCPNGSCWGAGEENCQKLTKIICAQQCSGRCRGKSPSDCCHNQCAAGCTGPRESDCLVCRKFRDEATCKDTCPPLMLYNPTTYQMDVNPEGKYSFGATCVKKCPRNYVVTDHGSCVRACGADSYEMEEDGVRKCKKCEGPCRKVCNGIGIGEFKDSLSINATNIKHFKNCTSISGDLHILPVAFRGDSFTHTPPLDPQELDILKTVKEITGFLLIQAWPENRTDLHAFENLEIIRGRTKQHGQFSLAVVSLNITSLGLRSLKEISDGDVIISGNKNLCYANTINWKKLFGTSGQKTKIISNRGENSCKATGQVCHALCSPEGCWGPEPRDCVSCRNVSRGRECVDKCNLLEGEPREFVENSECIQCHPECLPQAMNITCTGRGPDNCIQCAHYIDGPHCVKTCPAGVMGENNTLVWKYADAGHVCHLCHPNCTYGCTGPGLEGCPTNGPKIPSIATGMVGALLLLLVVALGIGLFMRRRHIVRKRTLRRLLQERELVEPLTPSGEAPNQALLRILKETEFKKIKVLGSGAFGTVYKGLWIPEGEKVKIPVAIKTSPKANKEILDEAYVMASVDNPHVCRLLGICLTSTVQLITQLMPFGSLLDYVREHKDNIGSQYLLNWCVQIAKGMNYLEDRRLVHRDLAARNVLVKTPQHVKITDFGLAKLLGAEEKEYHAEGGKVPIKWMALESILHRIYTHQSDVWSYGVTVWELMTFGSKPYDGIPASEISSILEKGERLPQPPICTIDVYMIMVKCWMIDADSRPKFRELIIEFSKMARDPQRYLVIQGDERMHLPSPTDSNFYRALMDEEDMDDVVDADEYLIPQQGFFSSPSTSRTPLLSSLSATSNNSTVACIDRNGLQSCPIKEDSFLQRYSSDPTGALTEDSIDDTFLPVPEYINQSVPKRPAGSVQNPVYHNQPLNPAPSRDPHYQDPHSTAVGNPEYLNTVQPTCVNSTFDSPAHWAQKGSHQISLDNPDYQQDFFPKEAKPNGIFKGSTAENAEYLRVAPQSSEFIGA
observed property: IC50

>>> df
                                   molecule                                 tested_on  value_observed
0  CN1C[C@H]2C[C@@]2(C#Cc2cc3ncnc(Nc4cccc(Cl)c4F)c3cc2NC(=O)/C=C/CN2CCOCC2)C1  EGFR Ex19del/C797S (Ba/F3) (Homo sapiens, UniProt P00533, C797S/DEL746-750)          3.1 nM

* * *

assay: Pharmacokinetic (PK) parameters in mice, IV bolus and PO; format: in vivo; conditions: plasma; Mouse (BalbC), PO 15 mg/kg
observed property: AUC(0-t) (ng·h/mL)

>>> df
                                   molecule  value_observed
0  C=CC(=O)Nc1cc2c(Nc3cccc(Cl)c3F)ncnc2cc1C#C[C@@]1(C)CCN(C)C1            1720
1  CN1C[C@H]2C[C@@]2(C#Cc2cc3ncnc(Nc4cccc(Cl)c4F)c3cc2NC(=O)/C=C/CN2CCOCC2)C1            1510
